Tested on: J2 IgG
Experiment: competition FP
Settings: 25 mM Tris-HCl pH 7.5, 2 mM MgCl2, 100 mM KCl (FP, 21 C) or 100-400 mM KCl (BLI, IgG on Protein A, 25 C)
pIC50: −log10 of the molar value.
REPORTED_METRIC: pIC50

1) GUUGUAAAGAAGGUCAAUAUUGUACCAAACUUGAUGGAAAAGAACAACGU / ACGUUGUUCUUUUCCAUCAAGUUUGGUACAAUAUUGACCUUCUUUACAAC [50-bp dsRNA] = 7.77

====

Test system: J2 IgG LC Y31A
Assay: BLI
Settings: 25 mM Tris-HCl pH 7.5, 2 mM MgCl2, 100 mM KCl (FP, 21 C) or 100-400 mM KCl (BLI, IgG on Protein A, 25 C)
pKd: −log10 of the molar value.
REPORTED_METRIC: pKd

1) GUUGUAAAGAAGGUCAAUAU / AUAUUGACCUUCUUUACAAC [20-bp dsRNA] = 6.03
